assay: in vitro; conditions: human, pH 5

[
  {
    "molecule": "CC(C)NCC(O)COc1cccc2ccccc12 (stereo not shown) [Propranolol]",
    "unit.spec": "×10⁻⁶ cm/s",
    "Papp at 120 min, 100 μM": 1.45
  }
]

----------
assay: in vitro; conditions: human, pH 7.4
observation.type: Papp at 120 min, 100 μM (×10⁻⁶ cm/s)

[
  {
    "compound": "CC(C)NCC(O)COc1cccc2ccccc12 (stereo not shown)",
    "unit.spec": "×10⁻⁶ cm/s",
    "measured.number": 9.35
  }
]

----------
test: in vitro; settings: human, pH 9

[
  {
    "compound": "CC(C)NCC(O)COc1cccc2ccccc12 (stereo not shown) [Propranolol]",
    "Papp at 120 min, 100 μM": "21.5 ×10⁻⁶ cm/s"
  }
]

This collection of values is drawn from patent US10624845B2.
